Cited source for all entries: patent US8580746B2

# Percent Inhibition annotations
ASSAYED_SYSTEM: human natriuratic peptide receptor A (NPRA) (Homo sapiens, UniProt P16066)
Sequence (P16066 33-1061): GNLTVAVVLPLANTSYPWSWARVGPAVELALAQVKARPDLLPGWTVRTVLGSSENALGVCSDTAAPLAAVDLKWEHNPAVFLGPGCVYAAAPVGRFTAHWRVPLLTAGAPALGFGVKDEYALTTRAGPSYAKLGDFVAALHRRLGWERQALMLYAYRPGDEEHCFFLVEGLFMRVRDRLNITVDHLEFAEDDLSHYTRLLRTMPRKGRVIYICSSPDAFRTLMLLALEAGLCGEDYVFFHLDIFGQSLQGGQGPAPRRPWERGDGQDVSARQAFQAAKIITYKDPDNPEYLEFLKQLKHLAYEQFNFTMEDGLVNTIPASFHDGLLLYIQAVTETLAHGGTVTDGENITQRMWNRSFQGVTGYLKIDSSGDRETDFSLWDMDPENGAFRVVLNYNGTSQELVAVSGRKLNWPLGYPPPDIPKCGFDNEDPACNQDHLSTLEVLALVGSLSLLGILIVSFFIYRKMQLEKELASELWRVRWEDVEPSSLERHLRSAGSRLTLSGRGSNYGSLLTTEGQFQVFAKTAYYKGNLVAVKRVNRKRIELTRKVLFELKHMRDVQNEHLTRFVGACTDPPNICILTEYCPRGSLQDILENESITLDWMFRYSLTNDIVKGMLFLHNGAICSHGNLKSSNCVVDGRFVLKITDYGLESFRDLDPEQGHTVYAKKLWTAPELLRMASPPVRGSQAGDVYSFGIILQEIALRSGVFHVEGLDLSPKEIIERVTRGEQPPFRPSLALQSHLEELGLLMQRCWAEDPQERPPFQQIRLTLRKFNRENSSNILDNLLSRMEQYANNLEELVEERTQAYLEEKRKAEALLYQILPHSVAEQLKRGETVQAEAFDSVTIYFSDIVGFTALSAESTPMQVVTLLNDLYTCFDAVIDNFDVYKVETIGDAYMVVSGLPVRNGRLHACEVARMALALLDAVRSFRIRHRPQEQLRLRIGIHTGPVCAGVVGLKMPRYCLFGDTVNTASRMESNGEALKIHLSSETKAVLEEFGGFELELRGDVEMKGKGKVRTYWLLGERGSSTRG
METHOD: Competitive inhibition binding assay, [125I]-ANP, membrane homogenates from HEK-hNPRA cells
CONDITION_PARAMETERS: inhibition of [125I]-ANP binding to HEK-hNPRA membranes; construct concentration not stated
Numbered stars: 1 amine (or outer) side, 2 acyl side, 3 side chain; on linkers, the order of the positions; unused ones are H or OH. Bridge positions count the residues as written; N and C are the ends. Square brackets hold non-standard residues; d marks the D form. Peptide text beside a SMILES is read from it. * marks the point of attachment. X1 = N=C(N)NCCC[C@H]1C(=O)N[C@@H](C(N)=O)CN1*; Glutaryl = O=C(CCCC(=O)[*:2])[*:1]; Suc = O=C(CCC(=O)[*:2])[*:1]; dNle = CCCC[C@@H](N)C(=O)O; Heptanoyl = CCCCCCC(=O)*; Nle = CCCC[C@H](N)C(=O)O; Orn = NCCC[C@H](N)C(=O)O; Dab = NCC[C@H](N)C(=O)O; Dap = NC[C@H](N)C(=O)O
Answer in %, number only, no unit symbol.

Item CCCCCCC(=O)N[C@H]1CNC(=O)CCC(=O)NC[C@@H](C(=O)N[C@@H](Cc2ccc(O)cc2)C(=O)N2C[C@H](C(N)=O)NC(=O)[C@@H]2CCCNC(=N)N)NC(=O)[C@H](CO)NC(=O)[C@H]([C@@H](C)CC)NC(=O)[C@H](CCCNC(=N)N)NC(=O)[C@H](CC(=O)O)NC(=O)[C@H](CCCC)NC(=O)[C@H](CCCNC(=N)N)NC(=O)CNC(=O)[C@@H](C)NC(=O)[C@H](Cc2ccccc2)NC(=O)[C@@H](Cc2c[nH]cn2)NC1=O [1-37] (Heptanoyl-[Dap][dH]F[dA]GR[Nle]DRIS[Dap]Y-X1; linker 1-12 via Suc) has what recorded Percent Inhibition?
100

Lookup CCCCCCC(=O)N[C@H]1CNC(=O)CCCC(=O)NCCC[C@@H](C(=O)N[C@@H](Cc2ccc(O)cc2)C(=O)N2C[C@H](C(N)=O)NC(=O)[C@@H]2CCCNC(=N)N)NC(=O)[C@H](CO)NC(=O)[C@H]([C@@H](C)CC)NC(=O)[C@H](CCCNC(=N)N)NC(=O)[C@H](CC(=O)O)NC(=O)[C@H](CCCC)NC(=O)[C@H](CCCNC(=N)N)NC(=O)CNC(=O)[C@@H](C)NC(=O)[C@H](Cc2ccccc2)NC(=O)[C@@H](Cc2c[nH]cn2)NC1=O [1-31] (Heptanoyl-[Dap][dH]F[dA]GR[Nle]DRIS[Orn]Y-X1; linker 1-12 via Glutaryl)
68

Lookup CCCCCCC(=O)N[C@H]1CC(=O)NCC[C@@H](C(=O)N[C@@H](Cc2ccc(O)cc2)C(=O)N2C[C@H](C(N)=O)NC(=O)[C@@H]2CCCNC(=N)N)NC(=O)[C@H](CO)NC(=O)[C@H]([C@@H](C)CC)NC(=O)[C@H](CCCNC(=N)N)NC(=O)[C@H](CC(=O)O)NC(=O)[C@@H](CCCC)NC(=O)[C@H](CCCNC(=N)N)NC(=O)CNC(=O)[C@@H](C)NC(=O)[C@H](Cc2ccccc2)NC(=O)[C@H](Cc2c[nH]cn2)NC1=O [4-138] (Heptanoyl-DHF[dA]GR[dNle]DRIS[Dab]Y-X1; lactam 1-12)
100

Lookup CCCC[C@@H]1NC(=O)[C@H](CCCNC(=N)N)NC(=O)CNC(=O)CNC(=O)[C@H](Cc2ccccc2)NC(=O)[C@H](Cc2c[nH]cn2)NC(=O)[C@@H](N)CC(=O)NCC[C@@H](C(=O)N[C@@H](Cc2ccc(O)cc2)C(=O)N2C[C@H](C(N)=O)NC(=O)[C@@H]2CCCNC(=N)N)NC(=O)[C@H](CO)NC(=O)[C@H]([C@@H](C)CC)NC(=O)[C@H](CCCNC(=N)N)NC(=O)[C@H](CC(=O)O)NC1=O [4-143] (H-DHFGGR[Nle]DRIS[Dab]Y-X1; lactam 1-12)
69
